assay: total protein half-life in vivo (active degradation + dilution); higher = more stable protein; conditions: wild type E. coli NCM3722; growth: P-lim chemostat; doubling time 6 h

chain | total protein half-life in vivo (h)
MNKHTEHDTREHLLATGEQLCLQRGFTGMGLSELLKTAEVPKGSFYHYFRSKEAFGVAMLERHYAAYHQRLTELLQSGEGNYRDRILAYYQQTLNQFCQHGTISGCLTVKLSAEVCDLSEDMRSAMDKGARGVIALLSQALENGRENHCLTFCGEPLQQAQVLYALWLGANLQAKISRSFEPLENALAHVKNIIATPAV | 5.25
MSAFTPASEVLLRHSDDFEQSRILFAGDLQDDLPARLDTAASRAHTQQFHHWQVLSRQMGDNARFSLVATADDVADCDTLIYYWPKNKPEAQFQLMNLLSLLPVGTDIFVVGENRSGVRSAEQMLADYAPLNKVDSARRCGLYFGRLEKQPVFDAEKFWGEYSVDGLTVKTLPGVFSRDGLDVGSQLLLSTLTPHTKGKVLDVGCGAGVLSVAFARHSPKIRLTLCDVSAPAVEASRATLAANGVEGEVFASNVFSEVKGRFDMIISNPPFHDGMQTSLDAAQTLIRGAVRHLNSGGELRIVANAFLPYPDVLDETFGFHEVIAQTGRFKVYRAIMTRQAKKG | 6

Origin of values: the supplement of paper PMC11246515
